# target.system: human recombinant PDE4 (Homo sapiens)
# Construct: made in house; host or cells: Saccharomyces cerevisiae BJ2-54
# Sequence (Q07343 whole entry): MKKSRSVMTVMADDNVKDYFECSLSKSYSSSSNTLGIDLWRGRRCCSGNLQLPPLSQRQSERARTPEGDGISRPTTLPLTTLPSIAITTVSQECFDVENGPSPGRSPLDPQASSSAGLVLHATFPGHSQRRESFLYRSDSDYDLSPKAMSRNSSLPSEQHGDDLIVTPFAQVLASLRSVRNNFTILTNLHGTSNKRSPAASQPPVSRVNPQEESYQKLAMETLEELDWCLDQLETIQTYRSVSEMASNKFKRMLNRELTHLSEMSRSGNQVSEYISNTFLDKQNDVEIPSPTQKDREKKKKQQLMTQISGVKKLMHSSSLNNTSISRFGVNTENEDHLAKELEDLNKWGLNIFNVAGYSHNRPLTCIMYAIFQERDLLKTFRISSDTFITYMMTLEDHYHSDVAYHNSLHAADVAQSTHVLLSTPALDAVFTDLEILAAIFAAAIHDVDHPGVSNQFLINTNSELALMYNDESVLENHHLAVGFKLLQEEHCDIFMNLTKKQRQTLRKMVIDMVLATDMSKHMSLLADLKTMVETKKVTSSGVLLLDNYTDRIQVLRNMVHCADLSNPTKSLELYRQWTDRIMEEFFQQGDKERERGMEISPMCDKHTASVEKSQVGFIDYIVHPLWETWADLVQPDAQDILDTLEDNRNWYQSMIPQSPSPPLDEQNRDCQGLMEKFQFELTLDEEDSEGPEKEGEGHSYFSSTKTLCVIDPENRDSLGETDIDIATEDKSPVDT
# experimental.protocol: Inhibition of human recombinant PDE4 (charcoal separation PDE assay)
# Assay type: biochemical
# setup.conditions: table with PBL/TNFα, read-out: PDE4 IC50
pIC50: −log10 of the molar value.
pIC50 values, listed per item
assay.metric: pIC50

INSERT INTO measurements (line_notation, result) VALUES
  ('CCOC(=O)c1c(C)nn(-c2ccc(N)cc2)c1C', 6.52),
  ('CCOC(=O)c1c(C)nn(-c2ncccc2[N+](=O)[O-])c1C', 6.70),
  ('CCOC(=O)c1c(C)nn(-c2cccc(N)c2)c1C', 6.00),
  ('CCOC(=O)c1c(C)nn(-c2ccccc2)c1C', 6.51),
  ('CCOC(=O)c1c(C)nn(-c2ncccc2N)c1C', 6.03),
  ('CCOC(=O)c1c(C)nn(C2CCCCC2)c1C', 7.28);

Ref: patent US7087634B2
